Target: MtQAPRTase (Mycobacterium tuberculosis, UniProt P9WJJ7)
Assay: Inhibition of MtQAPRTase activity by PZA/POA (HPLC quantification of NAMN)
Type: biochemical, Mycobacterium tuberculosis H37Rv
Parameters: Full-length nadC from M. tuberculosis H37Rv was inserted into the expression vector pET-30a; made in house; host or cells: E. coli BL21 (DE3), pET-30a
Settings: pH 6.2; read-out: Ki estimated from IC50 by web-based tool
Measured quantity: Ki (µM)

molecule="NC(=O)c1cnccn1 [PZA, Pyrazinamide]" test_target="MtQAPRTase (Mycobacterium tuberculosis, UniProt P9WJJ7)" obs_value=69.4

---

Biological target: MtQAPRTase (Mycobacterium tuberculosis, UniProt P9WJJ7)
Experiment: Inhibition of MtQAPRTase activity by PZA/POA (HPLC quantification of NAMN)
Assay type: biochemical, Mycobacterium tuberculosis H37Rv
Set-up: Full-length nadC from M. tuberculosis H37Rv was inserted into the expression vector pET-30a; made in house; host or cells: E. coli BL21 (DE3), pET-30a
Settings: pH 7.2; read-out: Ki estimated from IC50 by web-based tool
Listed here: items and their measured Ki.
Measured quantity: Ki (µM)

compound="NC(=O)c1cnccn1 [PZA, Pyrazinamide]" obs_value=19.2
compound=O=C(O)c1cnccn1 obs_value=175

---

Molecular target: MtQAPRTase (Mycobacterium tuberculosis, UniProt P9WJJ7)
Sequence (P9WJJ7 1-285): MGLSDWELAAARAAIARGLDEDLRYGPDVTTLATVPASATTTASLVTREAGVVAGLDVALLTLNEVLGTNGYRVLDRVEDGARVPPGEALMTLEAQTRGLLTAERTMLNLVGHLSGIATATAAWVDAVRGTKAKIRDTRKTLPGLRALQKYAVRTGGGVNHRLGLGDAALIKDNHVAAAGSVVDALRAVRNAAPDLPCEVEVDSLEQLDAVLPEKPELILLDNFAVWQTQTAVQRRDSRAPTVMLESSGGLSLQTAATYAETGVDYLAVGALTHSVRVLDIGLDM
Criterion: Specific activity strictly under 0.1 Unit/mg. Met: y. Not met: n.

molecule=[Cl-].[Cl-].[Mg+2] test_target="MtQAPRTase (Mycobacterium tuberculosis, UniProt P9WJJ7)" answer_label=n
molecule=O=S(=O)([O-])[O-].[Cu+2] test_target="MtQAPRTase (Mycobacterium tuberculosis, UniProt P9WJJ7)" answer_label=y
molecule=[Cl][Fe][Cl] test_target="MtQAPRTase (Mycobacterium tuberculosis, UniProt P9WJJ7)" answer_label=y
molecule=[Ca+2].[Cl-].[Cl-] test_target="MtQAPRTase (Mycobacterium tuberculosis, UniProt P9WJJ7)" answer_label=y
molecule=[Cl][Mn][Cl] test_target="MtQAPRTase (Mycobacterium tuberculosis, UniProt P9WJJ7)" answer_label=n
molecule="[Cl-].[Cl-].[Zn+2] [Zn^2+ (ZnCl2), ZnCl2]" test_target="MtQAPRTase (Mycobacterium tuberculosis, UniProt P9WJJ7)" answer_label=y
molecule=[Cl-].[Cl-].[Co+2] test_target="MtQAPRTase (Mycobacterium tuberculosis, UniProt P9WJJ7)" answer_label=n

---

Target: MtQAPRTase (Mycobacterium tuberculosis)
Sequence (P9WJJ7 1-285): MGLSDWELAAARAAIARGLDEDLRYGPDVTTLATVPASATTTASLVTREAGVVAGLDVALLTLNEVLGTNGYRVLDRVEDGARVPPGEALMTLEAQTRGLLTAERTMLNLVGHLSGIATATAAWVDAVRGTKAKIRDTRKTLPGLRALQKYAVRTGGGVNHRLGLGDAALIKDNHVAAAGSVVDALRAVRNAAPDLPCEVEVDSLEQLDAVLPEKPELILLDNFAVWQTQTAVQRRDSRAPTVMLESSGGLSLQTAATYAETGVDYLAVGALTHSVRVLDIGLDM
Measured quantity: Relative Activity (%)

compound="[Cl][Mn][Cl] [Mn^2+ (MnCl2), MnCl2]" display_unit=% obs_value=27
compound="[Ca+2].[Cl-].[Cl-] [Ca^2+ (CaCl2), CaCl2]" display_unit=% obs_value=0
compound="O=S(=O)([O-])[O-].[Cu+2] [Cu^2+ (CuSO4), CuSO4]" display_unit=% obs_value=0
compound="[Cl-].[Cl-].[Mg+2] [Mg^2+ (MgCl2), MgCl2]" display_unit=% obs_value=100
compound="[Cl-].[Cl-].[Zn+2] [Zn^2+ (ZnCl2), ZnCl2]" display_unit=% obs_value=0
compound="[Cl-].[Cl-].[Co+2] [Co^2+ (CoCl2), CoCl2]" display_unit=% obs_value=12
compound="[Cl][Fe][Cl] [Fe^2+ (FeCl2), FeCl2]" display_unit=% obs_value=6
